test system: OVKATE (Ovarian Carcinoma); experiment: Bliss excess, mean over the matrix (fraction); higher = more synergy;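 also: after 72 h of two-drug dosing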
PARAMETER: Bliss excess
Answers are plain numbers.

Prompt line: Provide value of Bliss excess for this record tested with OVKATE (Ovarian Carcinoma): N#Cc1cnc(Nc2cc(NC[C@H]3CNCCO3)c(C(F)(F)F)cn2)cn1 [SRA737] + O=c1[nH]cc(F)c(=O)[nH]1 [5-Fluorouracil] (first compound max 10 µM, 7x7, partner max 20 µM)
Response line: -0.0286

Here is another molecule to look at.
Prompt line: Provide value of Bliss excess for this record tested with OVKATE (Ovarian Carcinoma): N#Cc1cnc(Nc2cc(NC[C@H]3CNCCO3)c(C(F)(F)F)cn2)cn1 [SRA737] + CCc1c2c(nc3ccc(O)cc13)-c1cc3c(c(=O)n1C2)COC(=O)[C@]3(O)CC [SN-38] (first compound max 10 µM, 7x7, partner max 0.3 µM)
Response line: -0.045
